Data provenance is ChEMBL document CHEMBL3351789.

Experiment: Plasma protein binding in dog
Type: ADME, cell-free, Canis lupus familiaris
Conditions: read-out: PPB (converted)
MEASUREMENT TYPE: fraction unbound
Answers are plain numbers.

Give the reported fraction unbound for this molecule. O=C(Nc1nc2cccc(-c3ccc(CN4CCS(=O)(=O)CC4)cc3)n2n1)C1CC1 0.711

----------
Test: AUC (0 to infinity) in dog at 5 mg/kg, po
Type: ADME, organism-based, Canis lupus familiaris
Parameters: dose 5 mg/kg, route oral, time infinity
Conditions: plasma
MEASUREMENT TYPE: AUC(0-inf)

Give the reported AUC(0-inf) for this compound. O=C(Nc1nc2cccc(-c3ccc(CN4CCS(=O)(=O)CC4)cc3)n2n1)C1CC1 13900 ng·h/mL

----------
Assay: Half life in human hepatocytes
Format: ADME, cell-based, Hepatocyte
MEASUREMENT TYPE: half-life (h)
Numbers only, in h.

Give the reported half-life for this compound. O=C(Nc1nc2cccc(-c3ccc(CN4CCS(=O)(=O)CC4)cc3)n2n1)C1CC1 [FILGOTINIB] 3.33

----------
Consider the following compounds; for each one, report its pIC50.
Target: Tyrosine-protein kinase JAK1 (Homo sapiens, UniProt P23458)
Sequence (P23458 whole entry): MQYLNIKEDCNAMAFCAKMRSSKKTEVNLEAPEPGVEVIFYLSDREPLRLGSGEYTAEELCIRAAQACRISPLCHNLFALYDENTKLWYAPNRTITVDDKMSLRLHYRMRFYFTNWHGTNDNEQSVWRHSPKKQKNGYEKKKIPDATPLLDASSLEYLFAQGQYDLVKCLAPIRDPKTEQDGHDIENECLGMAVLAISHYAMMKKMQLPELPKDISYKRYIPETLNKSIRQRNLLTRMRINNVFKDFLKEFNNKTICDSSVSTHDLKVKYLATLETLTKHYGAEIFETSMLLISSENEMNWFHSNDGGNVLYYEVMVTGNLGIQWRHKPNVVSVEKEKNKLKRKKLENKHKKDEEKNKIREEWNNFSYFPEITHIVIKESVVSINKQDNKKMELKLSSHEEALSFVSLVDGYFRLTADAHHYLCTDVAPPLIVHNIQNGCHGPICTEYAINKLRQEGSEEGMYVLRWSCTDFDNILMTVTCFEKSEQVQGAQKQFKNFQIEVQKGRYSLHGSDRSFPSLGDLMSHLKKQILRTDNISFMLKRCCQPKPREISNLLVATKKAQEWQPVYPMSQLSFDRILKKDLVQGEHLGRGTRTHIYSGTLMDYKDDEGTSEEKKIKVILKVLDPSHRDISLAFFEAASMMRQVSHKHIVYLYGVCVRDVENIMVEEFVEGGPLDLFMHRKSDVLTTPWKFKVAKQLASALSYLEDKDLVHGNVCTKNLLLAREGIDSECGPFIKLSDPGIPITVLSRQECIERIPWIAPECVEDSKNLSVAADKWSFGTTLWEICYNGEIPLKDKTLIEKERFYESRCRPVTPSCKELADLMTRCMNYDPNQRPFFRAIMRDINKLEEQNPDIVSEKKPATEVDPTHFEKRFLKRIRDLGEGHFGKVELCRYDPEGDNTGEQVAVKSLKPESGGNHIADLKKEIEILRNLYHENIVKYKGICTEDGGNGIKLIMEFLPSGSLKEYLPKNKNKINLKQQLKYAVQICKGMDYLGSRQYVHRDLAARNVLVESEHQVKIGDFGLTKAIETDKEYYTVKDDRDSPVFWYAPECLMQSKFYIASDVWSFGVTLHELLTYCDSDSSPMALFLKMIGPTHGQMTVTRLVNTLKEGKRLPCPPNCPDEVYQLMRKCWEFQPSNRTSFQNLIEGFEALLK
Experiment: Inhibition of human recombinant JAK1
Conditions: read-out: IC50
Numbers only, as −log10 of the molar value.

Consider the worked cases shown below.
CNC(=O)Nc1nc2cccc(-c3ccc(OC)cc3)n2n1 :: 6.38
COc1ccc(-c2cccc3nc(N)nn23)cc1 :: 5.51
O=C(Nc1nc2cccc(-c3ccc(Cc4ccc(O)c(CO)c4)cc3)n2n1)C1CC1 :: 8.08
O=C(Nc1nc2cccc(-c3ccc(CN4CCC(F)(F)CC4)cc3)n2n1)C1CC1 :: 7.57
CCOc1ccc(-c2nccc3nc(NC(=O)C4CC4)nn23)cc1 :: 6.38

Items follow; give pIC50 for each.
1. CCOc1ccc(-c2c(OC)ccc3nc(NC(=O)C4CC4)nn23)cc1
2. O=C(Nc1nc2cccc(-c3ccc(CNC4CCS(=O)(=O)C4)cc3)n2n1)C1CC1 (stereo not drawn)
3. O=C(Nc1nc2cccc(-c3cccc(Cl)c3)n2n1)C1CC1
4. COc1ccccc1-c1cccc2nc(NC(=O)C3CC3)nn12
5. N#CCc1ccccc1NCc1ccc(-c2cccc3nc(NC(=O)C4CC4)nn23)cc1

5.52
7.39
6.85
6.43
8.85

Items follow; give pIC50 for each.
1. O=C(Nc1nc2cccc(-c3ccc(CNC(=O)C(F)(F)F)cc3)n2n1)C1CC1
2. N#Cc1ccc(OCC2CN(c3ccc(-c4cccc5nc(NC(=O)C6CC6)nn45)cc3)C2)cc1
3. CCOc1ccc(-c2cncc3nc(NC(=O)C4CC4)nn23)cc1
4. COc1ncc(-c2cccc3nc(NC(=O)C4CC4)nn23)cn1
5. CCC(=O)Nc1nc2cccc(-c3ccc(OC)cc3)n2n1
6. CCOc1ccc(-c2cccc3nc(NC(=O)C4CC4)nn23)cc1

[7.80, 6.83, 5.51, 6.01, 5.70, 7.57]

----------
Molecular target: Fibroblast growth factor receptor 3 (Homo sapiens)
Sequence (P22607 whole entry): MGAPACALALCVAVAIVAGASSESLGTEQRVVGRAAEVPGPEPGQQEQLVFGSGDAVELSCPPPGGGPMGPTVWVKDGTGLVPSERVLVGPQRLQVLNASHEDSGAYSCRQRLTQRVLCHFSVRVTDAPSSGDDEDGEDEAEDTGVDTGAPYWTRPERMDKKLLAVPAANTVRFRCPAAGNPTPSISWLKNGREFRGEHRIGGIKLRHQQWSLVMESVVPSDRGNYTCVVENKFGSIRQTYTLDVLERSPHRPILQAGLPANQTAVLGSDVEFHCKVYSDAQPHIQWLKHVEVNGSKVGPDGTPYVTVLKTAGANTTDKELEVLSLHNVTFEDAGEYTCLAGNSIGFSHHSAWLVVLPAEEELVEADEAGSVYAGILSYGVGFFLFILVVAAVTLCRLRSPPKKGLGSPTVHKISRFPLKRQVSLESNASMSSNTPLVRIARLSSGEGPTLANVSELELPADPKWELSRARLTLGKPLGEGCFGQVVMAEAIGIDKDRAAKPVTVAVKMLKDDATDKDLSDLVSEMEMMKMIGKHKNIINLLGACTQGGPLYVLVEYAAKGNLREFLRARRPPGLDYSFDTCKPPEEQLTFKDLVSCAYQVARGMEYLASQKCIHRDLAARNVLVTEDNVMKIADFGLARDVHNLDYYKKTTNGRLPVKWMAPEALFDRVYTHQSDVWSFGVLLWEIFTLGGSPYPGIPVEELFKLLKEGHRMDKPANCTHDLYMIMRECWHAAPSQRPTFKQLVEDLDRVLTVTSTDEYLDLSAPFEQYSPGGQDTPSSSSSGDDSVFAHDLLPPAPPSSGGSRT
pIC50: −log10 of the molar value.
MEASUREMENT TYPE: pIC50

Give the reported pIC50 for this compound. COc1ccc(-c2cccc3nc(NC(=O)C4CC4)nn23)cc1 < 5.24

----------
Assay: Half life in rat at 1 mg/kg, iv
Format: ADME, organism-based
Design: dose 1 mg/kg, route intravenous
Conditions: in vivo
Consider the following compounds; for each one, report its half-life.
One number for each entry, in min.

Items follow; give half-life for each.
1. O=C(Nc1nc2cccc(-c3ccc(CN4CCS(=O)(=O)CC4)cc3)n2n1)C1CC1
2. O=C(Nc1nc2cccc(-c3ccc(CN4CCOCC4)cc3)n2n1)C1CC1

1. 96
2. 44.4
